Numbers sourced from PubChem BioAssay AID1159580.

- Procedure details: chemical genetic growth profiling, strain panel (AID 1159580);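 further: tested at 20 µM; growth read once vehicle control cultures reached saturation at 30 °C; 1 = growth at the plate median or of vehicle wells; lower values mean less growth of the strain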
- Run conditions: S. cerevisiae deletion strains, growth OD, locus YJR066W, strain TOR1
Hit rate of the full screen: of about 5,500 compounds, about 2,000 (36%) were called active. Roughly 18% stayed inconclusive and do not appear here. No stated cut-off is given here; in the data, active means normalized growth mostly below about 0.91 (no sharp cut-off); inconclusive means no clear call, values can overlap the other calls; inactive means mostly above about 0.92. The list shows a part of the results.
Form entry, call: pick from True for active, False for inactive

Inquiry: Any idea what this test logged for `O=C(Nc1ccncc1)c1cc(-c2ccccc2)oc1C(F)(F)F` ?
Reply text: False

Inquiry: Any idea what this test logged for CC1CCC(NC(=O)N(CCCl)N=O)CC1 (stereo unspecified) ?
Reply text: False

Inquiry: Any idea what this test logged for `O=S(=O)(NCc1ccc(C(F)(F)F)cc1)c1cc(Br)c(Br)s1` ?
Reply text: False

Inquiry: Any idea what this test logged for CC(=O)O[C@H]1C[C@@H](OC(C)=O)C(C)(C)C2C[C@@H](OC(C)=O)[C@]3(C)C(CC[C@@]4(C)[C@H](c5ccoc5)OC(=O)[C@H]5O[C@]543)[C@]21C (stereo partly specified) ?
Reply text: False

Inquiry: Any idea what this test logged for `COC(=O)[C@H](c1ccccc1Cl)N1CCc2sccc2C1` ?
Reply text: False

Inquiry: Any idea what this test logged for `CC[C@@H]1OC(=O)C[C@@H](O)[C@H](C)[C@@H](O[C@@H]2O[C@H](C)[C@@H](O)[C@H](N(C)C)[C@H]2O)[C@@H](CCN2C[C@H](C)C[C@H](C)C2)C[C@@H](C)C(=O)/C=C/C(C)=C\[C@@H]1CO[C@@H]1O[C@H](C)[C@@H](O)[C@@H](OC)[C@H]1OC` ?
Reply text: False

Inquiry: Any idea what this test logged for `CCCNC(=O)NS(=O)(=O)c1ccc(Cl)cc1` ?
Reply text: False

Inquiry: Any idea what this test logged for `O=NN(CCCl)C(=O)NCCCl` ?
Reply text: True

Inquiry: Any idea what this test logged for `CC1=CC(=O)N(c2ccc(OC(F)(F)F)cc2)C1=O` ?
Reply text: True

Inquiry: Any idea what this test logged for `O=S(=O)(Nc1cc(Cl)c(Cl)cc1Cl)c1cc(C(F)(F)F)cc(C(F)(F)F)c1` ?
Reply text: False

Inquiry: Any idea what this test logged for `NC1(C(=O)O)CCCC1` ?
Reply text: False

Inquiry: Any idea what this test logged for `C[C@@H](Nc1ncnc2sc3c(c12)CCCC3)c1ccccc1` ?
Reply text: False

Inquiry: Any idea what this test logged for `O=C(Nc1cc(Cl)ccc1O)c1ccccc1CSc1ccc(Cl)cc1` ?
Reply text: False

Inquiry: Any idea what this test logged for `CN(C/C=C/C#CC(C)(C)C)Cc1cccc2ccccc12` ?
Reply text: True

Inquiry: Any idea what this test logged for `NC1(C(=O)O)CCC1` ?
Reply text: False

Inquiry: Any idea what this test logged for `c1ccc2c(CC3=NCCN3)cccc2c1` ?
Reply text: False

Inquiry: Any idea what this test logged for COc1ccc2nc(S(=O)Cc3ncc(C)c(OC)c3C)[nH]c2c1 (stereo unspecified) ?
Reply text: False

Inquiry: Any idea what this test logged for Cc1cccc(C)c1NC(=O)C1CCCCN1C (stereo unspecified) ?
Reply text: False

Inquiry: Any idea what this test logged for C=CCS(=O)C[C@H](N)C(=O)O (stereo partly specified) ?
Reply text: False

Inquiry: Any idea what this test logged for COc1ccnc(CS(=O)c2nc3ccc(OC(F)F)cc3[nH]2)c1OC (stereo unspecified) ?
Reply text: False

Inquiry: Any idea what this test logged for NCC[C@@H](O)C(=O)N[C@@H]1C[C@H](N)[C@@H](O[C@H]2O[C@H](CN)[C@@H](O)[C@H](O)[C@H]2O)[C@H](O)[C@H]1O[C@H]1O[C@H](CO)[C@@H](O)[C@H](N)C1O (stereo partly specified) ?
Reply text: False

* * *

Kindly supply the reported normalized growth values for the records listed here.
- Procedure details: chemical genetic growth profiling, strain panel (AID 1159580);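 further: tested at 20 µM; growth read once vehicle control cultures reached saturation at 30 °C; 1 = growth at the plate median or of vehicle wells; lower values mean less growth of the strain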
- Run conditions: S. cerevisiae deletion strains, growth OD, locus YHR079C, strain IRE1, active compounds read low
The campaign covered roughly 5,500 compounds. About 2,000 (36%) were called active. Roughly 18% stayed inconclusive and do not appear here. The list shows a part of the results.
Provide a numeric answer; units are not to be included.

Inquiry: Please give measured normalized growth of the following entry: `CN1CCC[C@@H]1CCO[C@](C)(c1ccccc1)c1ccc(Cl)cc1`
Reply text: 0.992

Inquiry: Please give measured normalized growth of the following entry: `Clc1ccc(Oc2ccnc3cc(Cl)ccc23)cc1`
Reply text: 0.546

Inquiry: Please give measured normalized growth of the following entry: CC(C)=CC1C(C(=O)OCc2cccc(Oc3ccccc3)c2)C1(C)C (stereo not drawn)
Reply text: 0.979

Inquiry: Please give measured normalized growth of the following entry: `COc1ccc2c(c1)CCc1sc(NC(=O)c3ccco3)nc1-2`
Reply text: 0.952

Inquiry: Please give measured normalized growth of the following entry: CN[C@@H]1C(OC2[C@H](O[C@H]3[C@H](O)[C@@H](O)[C@H](N=C(N)N)[C@@H](O)[C@@H]3N=C(N)N)OC(C)[C@]2(O)CO)OC(CO)C(O)C1O (stereo partly drawn)
Reply text: 1.03

Inquiry: Please give measured normalized growth of the following entry: `C/C(=N/NC(=S)NCC(C)(C)C)c1cc(F)cc(Cl)c1O`
Reply text: 0.784

Inquiry: Please give measured normalized growth of the following entry: `O=C(NNc1ccccc1)c1cc(-c2ccc(Cl)cc2)oc1C(F)(F)F`
Reply text: 0.541

Inquiry: Please give measured normalized growth of the following entry: NC(=O)NC1NC(=O)NC1=O (stereo not drawn)
Reply text: 1.02

Inquiry: Please give measured normalized growth of the following entry: `NC1(C(=O)O)CCC1`
Reply text: 1.01

Inquiry: Please give measured normalized growth of the following entry: Clc1ccc(C(Cn2ccnc2)OCc2ccsc2Cl)c(Cl)c1 (stereo not drawn)
Reply text: 0.111

Inquiry: Please give measured normalized growth of the following entry: CCC(=O)OC1[C@@H]2CC3=C4CC(=O)O[C@@H](c5ccoc5)[C@]4(C)CCC3[C@@](C)(C2=O)[C@@H](CC(=O)OC)C1(C)C (stereo partly drawn)
Reply text: 0.987

Inquiry: Please give measured normalized growth of the following entry: `NC1(C(=O)O)CC1`
Reply text: 1.03

Inquiry: Please give measured normalized growth of the following entry: `COc1cc(C)c2c(=O)cc(-c3ccccc3)oc2c1`
Reply text: 0.868

Inquiry: Please give measured normalized growth of the following entry: `COc1cc(OC)c2c(=O)cc(-c3ccccc3)oc2c1`
Reply text: 0.925

Inquiry: Please give measured normalized growth of the following entry: `COc1c(C)c2c(c(O)c1C/C=C(\C)CCC(=O)O)C(=O)OC2`
Reply text: 0.165

Inquiry: Please give measured normalized growth of the following entry: `N#CC(C#N)=Cc1c(-c2ccccc2Cl)[nH]c2ccccc12`
Reply text: 0.812

Inquiry: Please give measured normalized growth of the following entry: `C1N2CN3CN1CN(C2)C3`
Reply text: 0.929

Inquiry: Please give measured normalized growth of the following entry: `COc1cc(NS(C)(=O)=O)ccc1Cc1c2ccccc2nc2ccccc12`
Reply text: 0.946

Inquiry: Please give measured normalized growth of the following entry: CCCCCCCCCCCCCCCC(=O)OCC(O)CO (stereo not drawn)
Reply text: 0.99

Inquiry: Please give measured normalized growth of the following entry: `CN/C(=C\[N+](=O)[O-])NCCSCc1csc(CN(C)C)n1`
Reply text: 1.04

Inquiry: Please give measured normalized growth of the following entry: `CC(C)c1nc(N(C)S(C)(=O)=O)nc(-c2ccc(F)cc2)c1/C=C/[C@@H](O)C[C@@H](O)CC(=O)O`
Reply text: 0.127

Inquiry: Please give measured normalized growth of the following entry: `Cc1ccc(C(=O)c2ccc(CC(=O)O)n2C)cc1`
Reply text: 0.976

Inquiry: Please give measured normalized growth of the following entry: C=CCS(=O)C[C@H](N)C(=O)O (stereo partly drawn)
Reply text: 1.01

* * *

- Procedure details: chemical genetic growth profiling, strain panel (AID 1159580);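 further: tested at 20 µM; growth read once vehicle control cultures reached saturation at 30 °C; 1 = growth at the plate median or of vehicle wells; lower values mean less growth of the strain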
- Run conditions: S. cerevisiae deletion strains, growth OD, locus YCL011C, strain gbp2
About 2,000 (36%) of roughly 5,500 compounds were called active. Roughly 18% stayed inconclusive and do not appear here. Cut-off read from the data, not from the text of the source: active = normalized growth mostly below about 0.91 (no sharp cut-off); inconclusive = no clear call, values can overlap the other calls; inactive = mostly above about 0.92. The list shows a part of the results.
Form entry, call: pick from 1 (active), 0 (inactive)

Inquiry: Any idea what this test logged for CC(=O)Oc1c2c(c3c(c1CC=C(C)C)O[C@]14C(=C[C@@H]5CC1C(C)(C)OC4(C/C=C(\C)C(=O)O)C5=O)C3=O)OC(C)(CCC=C(C)C)C=C2 (some centres undefined) ?
Reply text: 0

Inquiry: Any idea what this test logged for `NCCCCCC(=O)O` ?
Reply text: 0

Inquiry: Any idea what this test logged for Cc1cccc(C)c1NC(=O)C1CCCCN1C (centres undefined) ?
Reply text: 0

Inquiry: Any idea what this test logged for CC(=O)O[C@H]1C[C@@]2(C)[C@@H](C[C@@H](O)C3[C@]2(C)CC[C@H]2[C@H](C)[C@H](O)CC[C@]32C)/C1=C(/CCC=C(C)C)C(=O)O (some centres undefined) ?
Reply text: 0

Inquiry: Any idea what this test logged for `NCCCNCCSP(=O)(O)O` ?
Reply text: 0

Inquiry: Any idea what this test logged for `NC(N)=NCCN1CCCCCCC1` ?
Reply text: 0

Inquiry: Any idea what this test logged for COc1ccc2c(c1)OCC(Cc1ccc(OC)c(O)c1)C2=O (centres undefined) ?
Reply text: 0

Inquiry: Any idea what this test logged for `NCCCCC(=O)O` ?
Reply text: 0

Inquiry: Any idea what this test logged for COc1ccc2c(c1)OCC(Cc1ccc(O)c(OC)c1)C2=O (centres undefined) ?
Reply text: 0

Inquiry: Any idea what this test logged for COC(=O)/C(C)=C\CC12OC(C)(C)C3CC(C=C4C(=O)c5c(OC)c6c(c(CC=C(C)C)c5OC431)OC(C)(CCC=C(C)C)C=C6)C2=O (centres undefined) ?
Reply text: 0

Inquiry: Any idea what this test logged for `C1N2CN3CN1CN(C2)C3` ?
Reply text: 0

Inquiry: Any idea what this test logged for `FC(F)(F)c1cccc(N2CCNCC2)c1` ?
Reply text: 0

Inquiry: Any idea what this test logged for `O=c1oc2ccccc2cc1O` ?
Reply text: 0

Inquiry: Any idea what this test logged for `Cc1cc(/C=C/c2ccc3cc(N(C)C)ccc3[n+]2C)c(C)n1-c1ccccc1` ?
Reply text: 1
